Cited source for all entries: paper PMC3713010

# TARGET UNDER TEST: T1, Brn2 DNA-binding domain (BD-Brn2) (Mus musculus (B6), UniProt P31360 336-435)
# T1 sequence: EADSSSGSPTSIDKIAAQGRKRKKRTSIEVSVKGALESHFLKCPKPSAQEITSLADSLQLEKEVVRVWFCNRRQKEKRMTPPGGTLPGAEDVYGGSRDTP
# PROTOCOL NOTES: EMSA; 10% glycerol, 20 mM HEPES pH 7.8, 45 mM KCl, 10 mM NaCl, 1 mM EDTA, 1 mM DTT, 0.2 ug/uL BSA, 0.1% NP-40, 50 ng poly-dIdC; 20 ng each GST protein; room temperature 30 min (heterodimers 4 C); 6% PAGE 0.25x TBE
# EXPERIMENTAL PARAMETERS: protein: recombinant; tags: GST (N-terminal, pGEX-6P-1); label: 32P-dCTP fill-in of the 5' (dG)5 overhangs of both strands (Methods; control probes are given with GGG)

- BINDER: "104 (dsDNA) DNA 1: GGGGGCACAATTTTTATAATATATAATTGTTTCATCAACCCCC DNA 2: GGGGGTTGATGAAACAATTATATATTATAAAAATTGTGCCCCC"
  binding result: "binds"
- BINDER: "97 (dsDNA) DNA 1: GGGGGTAGATGCTACAAAAGATACTGATTAAAACCCAAATGCCCCC DNA 2: GGGGGCATTTGGGTTTTAATCAGTATCTTTTGTAGCATCTACCCCC"
  binding result: "binds"
- BINDER: "40 (dsDNA) DNA 1: GGGGGTTTGTCATTTTGTAGTGCTAGGAATTAAACCCATGTCCCCC DNA 2: GGGGGACATGGGTTTAATTCCTAGCACTACAAAATGACAAACCCCC"
  binding result: "binds"
